Hey, just so you know, these numbers are from the supplement of paper PMC13380429.

Assign relative viability EC50 to each entry below.
Tested on: HepG2
Test: relative viability EC50 (midpoint between 100% and the lowest measured viability); higher = less toxic
Conditions: 72 h

Example entries begin here.
# compound, relative viability EC50
measured = [
    ("CCC[C@H](N[C@@H](C)C(=O)N1[C@H](C(=O)O)C[C@@H]2CCCC[C@@H]21)C(=O)OCC", "> 10 µM"),
    ("COC(=O)[C@H](Cc1ccccc1)NC(=O)[C@@H](N)CC(=O)O", "> 10 µM"),
    ("CCCCCCCCCCCC[N+](C)(C)CCOc1ccccc1", "2.46 µM"),
]

Provide relative viability EC50 for all items below, preserving their order.
1. O=C(Nc1cccc(C(F)(F)F)c1)Nc1ccc(Br)cc1-c1nnn[nH]1
2. N#Cc1ccc(C2CCCc3cncn32)cc1 (stereo not given)
3. CN1c2ccccc2C(=O)N2CCc3c([nH]c4ccccc34)C21 (stereo in doubt)
4. C=CC[C@]1(O)CC[C@H]2[C@@H]3CCC4=CC(=O)CCC4=C3C=C[C@@]21C
5. CNC(=O)c1cc(Oc2ccc(NC(=O)Nc3ccc(Cl)c(C(F)(F)F)c3)c(F)c2)ccn1
6. C/C(=C\C(=O)Nc1ccccc1C(=O)O)c1ccc2ccccc2c1
7. CC(=O)Oc1ccc(C(c2ccc(OC(C)=O)cc2)c2ccccn2)cc1
8. O=S(=O)(F)Cc1ccccc1 [phenylmethylsulfonyl-fluoride]

(A)
1: > 10 µM; 2: > 10 µM; 3: 0.508 µM; 4: > 10 µM; 5: 1.03 µM; 6: > 10 µM; 7: > 10 µM; 8: > 10 µM

Provide relative viability EC50 for all items below, preserving their order.
1. COC(=O)C1=C(C)NC(C)=C(C(=O)NCCCN2CCC(c3ccccc3)(c3ccccc3)CC2)C1c1ccc([N+](=O)[O-])cc1 (stereo not given)
2. Oc1ccc2c3c1O[C@H]1[C@@H](O)CC[C@@]4(O)[C@@H](C2)N(CC2CCC2)CC[C@]314
3. C=CCN1CC[C@]2(C)c3cc(O)ccc3C[C@H]1[C@H]2C
4. CC(=O)OC[C@H]1O[C@@H]([S-])[C@H](OC(C)=O)[C@@H](OC(C)=O)[C@@H]1OC(C)=O.CCP(CC)CC.[Au+]
5. CC1CCC(NC(=O)N(CCCl)N=O)CC1 (stereo not given)
6. O=C(Nc1ccccc1Br)N[C@@H]1CCN(c2ccc(C(F)(F)F)cn2)C1
7. C#CCN[C@@H]1CCc2ccccc21

(A)
1. 3.02 µM
2. > 10 µM
3. > 10 µM
4. 1.46 µM
5. > 10 µM
6. > 10 µM
7. > 10 µM

Provide relative viability EC50 for all items below, preserving their order.
1. Cn1cc(CCn2cnc(-c3cnn(C)c3)c2-c2ccc(C#N)cc2)cn1
2. CC(=O)[C@H]1CC[C@H]2[C@@H]3CC=C4C[C@@H](OC(=O)CCC(=O)O)CC[C@]4(C)[C@H]3CC[C@]12C [pregnenolone-succinate]

(A)
1. > 10 µM
2. > 10 µM
